- Tgt: recombinant human CYP11B2 (Homo sapiens, UniProt P19099)
- Construct: made in house; host or cells: V79-4 cells (enzyme enriched microsomal fraction of cell lysates)
- Sequence (P19099 25-503): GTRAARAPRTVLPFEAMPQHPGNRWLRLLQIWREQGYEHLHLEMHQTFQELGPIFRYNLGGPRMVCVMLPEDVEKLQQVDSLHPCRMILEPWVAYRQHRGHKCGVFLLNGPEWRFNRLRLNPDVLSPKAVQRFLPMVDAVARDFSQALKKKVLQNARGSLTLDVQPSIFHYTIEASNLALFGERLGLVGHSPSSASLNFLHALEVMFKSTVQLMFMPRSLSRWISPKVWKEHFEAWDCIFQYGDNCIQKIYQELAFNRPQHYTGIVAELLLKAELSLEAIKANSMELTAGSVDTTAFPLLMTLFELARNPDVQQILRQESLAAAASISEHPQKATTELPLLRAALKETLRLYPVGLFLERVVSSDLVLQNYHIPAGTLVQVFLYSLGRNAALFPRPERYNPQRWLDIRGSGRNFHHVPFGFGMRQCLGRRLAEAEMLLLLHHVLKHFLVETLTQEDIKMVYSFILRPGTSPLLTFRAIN
- Protocol Summary: CYP11B2 enzyme assay, enzyme enriched microsomes from V79-4 cells, aldosterone by LC-MS
- Assay type: biochemical
- Recorded Conditions: IC50 ranges; run at Km of 11-deoxycorticosterone; read-out: hCYP11B2 IC50
Measured Property: IC50

## Task I'd like to know its IC50. The compound in question is O=C(O)c1ccc2nc(-c3cncnc3C(F)(F)F)n(C3CC3)c2c1
## Result > 10 µM

## Task I'd like to know its IC50. The compound in question is CNc1ncncc1-c1nc2ccc(C#N)cc2n1C1CC1
## Result 0.001 to 0.1 µM

## Task I'd like to know its IC50. The compound in question is CCn1c(-c2cncnc2C(F)(F)F)nc2ccc(C#N)cc21
## Result 0.001 to 0.1 µM

## Task I'd like to know its IC50. The compound in question is CCc1ncncc1-c1nc2cc(F)c(F)cc2n1C1CC1
## Result 0.001 to 0.1 µM
